Assay: Tmax in nude BALB/c mouse at 50 mg/kg, po
Assay type: ADME, organism-based
Parameters: dose 50 mg/kg, route oral
Conditions: in vivo
Recorded Endpoint: Tmax (min)
Give your result in min as a bare value.

Challenge: I would be grateful if you could share the reported Tmax for CCCCc1nc2cc(/C=C/C(=O)NO)ccc2n1CCN(CC)CC.Cl.Cl .
Response given: 10.2

====

Assay: Cmax in Wistar rat at 10 mg/kg, po
Format: ADME, organism-based
Set-up: dose 10 mg/kg, route oral
Details: in vivo
Recorded Endpoint: Cmax (nM)
Give a bare numeral; the unit nM is implied.

Challenge: Query (compound): CCCCc1nc2cc(/C=C/C(=O)NO)ccc2n1CCN(CC)CC.Cl.Cl ; field requested: Cmax
Response given: 139

====

For each entry below, report its half-life value.
Test: Half life in mouse liver microsomes
Type: ADME, Microsome
Details: liver microsomes
The figure you give is taken to be in min; do not add the unit.

Challenge: Query: half-life; subject: CCCCc1nc2cc(/C=C/C(=O)NO)ccc2n1CCNC(C)C.Cl.Cl
Response given: 36

Challenge: Now the same for CN(C)CC(C)(C)Cn1c(CC(C)(C)C)nc2cc(/C=C/C(=O)NO)ccc21.Cl.Cl
Response given: 20

Challenge: What do you get for CCCCc1nc2cc(/C=C/C(=O)NO)ccc2n1CCN(CC)CC.Cl.Cl ?
Response given: 27

Challenge: For Cl.O=C(/C=C/c1ccc2c(c1)nc(CCc1ccccc1)n2CCN1CCCC1)NO then?
Response given: 5

Challenge: Continue with CCCCCCc1nc2cc(/C=C/C(=O)NO)ccc2n1CCNCC.Cl.Cl
Response given: 1.6

====

Experiment: Tmax in Beagle dog at 10 mg/kg, po
Format: ADME, organism-based, Canis lupus familiaris
Design: dose 10 mg/kg, route oral
Settings: in vivo
Recorded Endpoint: Tmax (min)
Response body: numeric value in min, unit text excluded.

Challenge: Item CCCCc1nc2cc(/C=C/C(=O)NO)ccc2n1CCN(CC)CC.Cl.Cl has what recorded Tmax?
Response given: 45

====

Exercise: state measured IC50 for each of the compounds provided.
Test system: A2780
Assay: Antiproliferative activity against human A2780 cells after 96 hrs by celltiter 96 assay
Assay type: functional, cell-based
Settings: A2780, 96 h
Respond numerically; units are nM and should not be typed.

Challenge: Quick one: IC50 of CCCCc1nc2cc(/C=C/C(=O)NO)ccc2n1CCN(CC)CC.Cl.Cl ?
Response given: 480

Challenge: Item: CCCCCCc1nc2cc(/C=C/C(=O)NO)ccc2n1CCN(C)C
Response given: 230

Challenge: // query: CCN(CC)CCn1c(CC2CC3CCC2C3)nc2cc(/C=C/C(=O)NO)ccc21 (stereo unspecified)
Response given: 210

Challenge: Let us now turn to CC(Cc1nc2cc(/C=C/C(=O)NO)ccc2n1CC(C)(C)CN(C)C)CC(C)(C)C (stereo unspecified)
Response given: 230

Challenge: Same again, this time with CC/C=C\CCc1nc2cc(/C=C/C(=O)NO)ccc2n1CCNCC
Response given: 200

Challenge: Also CCCCc1nc2cc(/C=C/C(=O)NO)ccc2n1CCNC(C)C , if possible.
Response given: 380

Challenge: Item: Cc1[nH]c2ccccc2c1CCNCc1ccc(/C=C/C(=O)NO)cc1
Response given: 35

Challenge: Another compound to check: CCCCCc1nc2cc(/C=C/C(=O)NO)ccc2n1CCNC(C)C
Response given: 230

Challenge: Input CCN(CC)CCn1c(CC(C)C)nc2cc(/C=C/C(=O)NO)ccc21
Response given: 1240

Challenge: Lookup CCNCCn1c(CC(C)CC(C)(C)C)nc2cc(/C=C/C(=O)NO)ccc21 (stereo unspecified)
Response given: 140

Challenge: Lookup O=C(/C=C/c1cccc(S(=O)(=O)Nc2ccccc2)c1)NO
Response given: 670

Challenge: Consider next the compound CCCCCCc1nc2cc(/C=C/C(=O)NO)ccc2n1CCNCC in the same way.
Response given: 240

Challenge: What do we get for CCCCCCc1nc2cc(/C=C/C(=O)NO)ccc2n1CCNC(C)C ?
Response given: 200

Challenge: Another compound: CC/C=C\CCc1nc2cc(/C=C/C(=O)NO)ccc2n1CC(C)(C)CN(C)C
Response given: 370

Challenge: And the next one, CN(C)CC(C)(C)Cn1c(CC(C)(C)C)nc2cc(/C=C/C(=O)NO)ccc21 ?
Response given: 440

Challenge: Now this one: CCCCc1nc2cc(/C=C/C(=O)NO)ccc2n1CCNCC
Response given: 760
